PBM binding z-score listing for selected sequences.
- System: PPARg DBDmut:RXRa IVT, anti-PPARg (DBD mutation: PPARg1 K132A/R137A, NR concentration 270 nM, RXRa partner concentration 90 nM)
- Test: PBM binding z-score (relative to random genomic background probes); higher = stronger binding; sequences stand for … in GC…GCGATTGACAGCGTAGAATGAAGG

Completed entries (count: 6):
Macromolecule Sequence: TAGCCTAGGTCATGGGTCAGTATACCACGCGAAC
PBM binding z-score: 1.25
--
Macromolecule Sequence: CGAACTAGGTCATTGACAGGACAGTGAGTAGTAA
PBM binding z-score: 0.587
--
Macromolecule Sequence: CGTCCAAGGTCGATGCTAGGTCAGTGAAAGCATT
PBM binding z-score: -0.113
--
Macromolecule Sequence: TCTATTAGTTGAGTAGGGCAACCGAAACAGCGGA
PBM binding z-score: 0.301
--
Macromolecule Sequence: ACTATTAGTTGACTTAGGGCAACCGGTACGACGC
PBM binding z-score: 0.963
--
Macromolecule Sequence: AATACAGGGTCATCGTAGTCCAGAGTACGCACAG
PBM binding z-score: 1.99

Sure, the documented PBM binding z-score for GGAACGAGGGCAAGTTGCTAGCAGAGTTTGATGG is -0.00966

Query CCTGCTAGGTCAATGGTAAGCTAAAGCAGCTCGC yields PBM binding z-score of -1.49

Item: ATATGTAGGTTAAGGGTCATTCCGGTTGGTTCGC | PBM binding z-score: 2.74

Reported PBM binding z-score for CCGACTAGGGCAGAAAGGTTACCATACCATCCGG was -0.185

Summary for this sequence, CCGAGTAGGTTACGGGGCATTCAGGCAACGGTGA : PBM binding z-score is -0.288

// recorded PBM binding z-score for GATACAGTGTCAAGGCCAGAGTACGCGTATTGAT : 0.0882

For record CCGACTGGGGCAAAGGTTACCAGACTCAGTACGA the listed PBM binding z-score is -0.692

The sequence GCTATCAGTTGAAAGGGCAACCGAATGATTCTCG showed PBM binding z-score equal to -0.111

// sample TCTATTAGTTGTAGGGCAACCGACGAGTCCGTTT , its PBM binding z-score was 0.777

PBM binding z-score measured on CCGACTCGGGCAAGGTTACCATAACGCACAGCCA = -0.901

The values you see were collected from the supplement of paper PMC6555819.
